assay-system: HLA-DR (DRA1*01:01 / DRB1*03:01), soluble knob-into-hole Fc heterodimer (human)
experimental-details: ELISA
pKd: −log10 of the molar value. No end group written: not given here.
metric-name: pKd

[[record]]
binder = "KPVSKMRMATPLLMQALPM (also: biotin-labeled) [biotin-labeled human Class II-associated Invariant Chain Peptide (Bio-CLIP)]"
metric_name = "pKd"
reported_measurement = 7.82

